# STUDY_TARGET: human DGKα (Homo sapiens, UniProt P23743)
# Construct: TVMV protease cleavage site (C); Hexa-His (C); made in house; host or cells: Sf9 insect cells (baculovirus, Bac-to-Bac)
# Sequence (P23743 with tags, fused parts or gaps): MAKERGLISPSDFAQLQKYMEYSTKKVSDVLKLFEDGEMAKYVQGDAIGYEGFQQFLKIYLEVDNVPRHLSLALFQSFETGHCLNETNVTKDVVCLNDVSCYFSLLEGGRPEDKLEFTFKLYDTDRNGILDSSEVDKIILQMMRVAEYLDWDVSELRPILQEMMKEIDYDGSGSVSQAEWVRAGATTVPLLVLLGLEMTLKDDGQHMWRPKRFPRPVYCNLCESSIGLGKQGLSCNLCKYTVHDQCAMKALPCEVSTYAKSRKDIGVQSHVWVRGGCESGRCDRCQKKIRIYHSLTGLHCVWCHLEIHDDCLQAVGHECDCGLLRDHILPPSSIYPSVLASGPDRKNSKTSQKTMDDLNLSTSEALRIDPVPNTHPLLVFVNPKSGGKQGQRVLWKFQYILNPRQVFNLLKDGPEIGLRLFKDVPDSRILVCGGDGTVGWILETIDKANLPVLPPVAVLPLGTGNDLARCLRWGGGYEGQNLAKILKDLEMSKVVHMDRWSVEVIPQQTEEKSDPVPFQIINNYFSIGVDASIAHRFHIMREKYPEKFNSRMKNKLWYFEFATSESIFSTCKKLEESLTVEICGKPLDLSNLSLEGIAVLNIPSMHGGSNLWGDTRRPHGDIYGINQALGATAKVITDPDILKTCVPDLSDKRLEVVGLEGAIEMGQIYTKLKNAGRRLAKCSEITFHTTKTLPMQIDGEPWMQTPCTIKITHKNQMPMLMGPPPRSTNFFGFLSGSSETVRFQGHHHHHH
# PROTOCOL_DESCRIPTION: DGKα LIPGLO assay (extruded liposome substrate), in vitro DGK inhibition
# Type: biochemical
# TEST_SETTINGS: DGKα liposome (LIPGLO) assay; read-out: DGKa LIPGLO IC50

>  <COMPOUND>
Cc1ccc(C(c2ccc(F)cc2Cl)N2CCN(c3c(C#N)c(=O)n(C)c4ccc(C#N)nc34)C[C@H]2C)nc1 (stereo partly drawn)

>  <STUDY_TARGET>
human DGKα (Homo sapiens, UniProt P23743)

>  <IC50 (µM)>
5.9

$$$$
>  <COMPOUND>
CC(c1ccccc1C(F)(F)F)N1CCN(c2c(C#N)c(=O)n(C)c3ccc(C#N)nc23)C[C@H]1C (single isomer, unassigned) [Example 966]

>  <STUDY_TARGET>
human DGKα (Homo sapiens, UniProt P23743)

>  <IC50 (µM)>
61

$$$$
>  <COMPOUND>
C[C@@H]1CN(c2c(C#N)c(=O)n(C)c3ccc(C#N)nc23)CCN1C(c1ccc(F)cc1)c1ccc(F)cn1 (stereo partly drawn) [Example 903]

>  <STUDY_TARGET>
human DGKα (Homo sapiens, UniProt P23743)

>  <IC50 (µM)>
0.63

$$$$
